Tested on: human Factor 7 mRNA
Test: Inhibition of human Factor 7 mRNA by 2-10-2 MOE shortmers in HepB3 cells, electroporation, 1,000 nM
Format: cell-based
Settings: electroporation, 1,000 nM oligonucleotide, approximately 24 hours, relative to untreated control cells
In the oligonucleotide strings, read from the 5' end, every base follows the letter of its sugar. An asterisk marks phosphorothioate; unmarked linkages are phosphodiester. Other units and linkages are bracketed, terminal groups are in braces. A string of capitals states the bases alone. e = 2'-O-(2-methoxyethyl) (MOE); [5mC] = 5-methylcytosine; d = 2'-deoxy (DNA)
Measured Property: % inhibition of human Factor 7 mRNA (%)
Numbers only here, please. The scale is %.

# count of solved cases: 5
# Substance, Unit Annotation, % inhibition of human Factor 7 mRNA
records = [
    ("435485 (antisense eT*e[5mC]*d[5mC]*dT*dG*dG*dG*dT*d[5mC]*dA*dT*d[5mC]*eA*eG) [compound 435485]", "%", 34),
    ("435716 (antisense eT*eT*dT*dT*dG*d[5mC]*dA*dG*d[5mC]*d[5mC]*dA*d[5mC]*eT*e[5mC]) [compound 435716]", "%", 22),
    ("435814 (antisense eT*eG*dA*d[5mC]*dG*dA*dG*dA*dG*dG*dA*d[5mC]*e[5mC]*eA) [compound 435814]", "%", 31),
    ("435845 (antisense eG*e[5mC]*dT*d[5mC]*dA*dT*dG*dG*d[5mC]*dA*dG*dA*e[5mC]*eA) [compound 435845]", "%", 21),
    ("435749 (antisense e[5mC]*eA*dG*d[5mC]*d[5mC]*dA*dG*dG*dG*d[5mC]*d[5mC]*dT*eG*eG) [compound 435749]", "%", 29),
]

Record summary for 435760 (antisense eT*e[5mC]*dT*dT*dG*dG*dG*dT*dG*dT*dG*dG*eA*eT) [compound 435760] : reported % inhibition of human Factor 7 mRNA = 17

Data point: 435784 (antisense e[5mC]*e[5mC]*dT*dA*dA*dG*dT*dG*dT*dG*d[5mC]*dT*eT*eT) [compound 435784] ; % inhibition of human Factor 7 mRNA = 17

Entry 435643 (antisense e[5mC]*eT*dT*dG*d[5mC]*dA*dG*dG*dA*dG*d[5mC]*d[5mC]*e[5mC]*e[5mC]) [compound 435643] ; % inhibition of human Factor 7 mRNA = 51

# substance 435669 (antisense eG*eG*dA*d[5mC]*d[5mC]*dT*dG*d[5mC]*d[5mC]*dA*dT*dG*eG*eA) [compound 435669] ; its % inhibition of human Factor 7 mRNA = 36

% inhibition of human Factor 7 mRNA for 435822 (antisense e[5mC]*e[5mC]*dA*dG*dG*dA*dG*d[5mC]*d[5mC]*dT*dT*dT*eA*e[5mC]) [compound 435822] is 37

Sure, the documented % inhibition of human Factor 7 mRNA for 435808 (antisense e[5mC]*eT*d[5mC]*dT*dG*dG*dA*d[5mC]*dA*d[5mC]*d[5mC]*dG*eG*eG) [compound 435808] is 66

###

Tested on: human Factor 7 mRNA
Experiment: Dose-dependent antisense inhibition of human Factor 7 in HepB3 cells, transfection with lipofectin
Assay type: cell-based
Settings: 3.125 nM, lipofectin, HepB3 cells, 16 hours
In the oligonucleotide strings, read from the 5' end, every base follows the letter of its sugar. An asterisk marks phosphorothioate; unmarked linkages are phosphodiester. Other units and linkages are bracketed, terminal groups are in braces. A string of capitals states the bases alone. e = 2'-O-(2-methoxyethyl) (MOE); [5mC] = 5-methylcytosine; d = 2'-deoxy (DNA)
percent inhibition of Factor 7 mRNA, relative to untreated control cells values by entry
Write the numeric value and append its unit.

# Substance, Measured Target, Observed Measurement
measured = [
    ("422295 (antisense e[5mC]*eG*dA*dG*dT*dT*d[5mC]*dT*dG*d[5mC]*dA*dG*dG*dA*dG*e[5mC]*eG*eG*e[5mC]*e[5mC]) [compound 422295]", "human Factor 7 mRNA", "17%"),
    ("422096 (antisense eA*eG*eA*e[5mC]*eA*dA*dT*dG*dG*dT*d[5mC]*dA*dG*dG*dG*e[5mC]*eT*eG*eG*eT) [compound 422096]", "human Factor 7 mRNA", "17%"),
    ("422142 (antisense eG*eA*eG*eT*eT*d[5mC]*dT*dG*d[5mC]*dA*dG*dG*dA*dG*d[5mC]*eG*eG*e[5mC]*e[5mC]*eT) [compound 422142]", "human Factor 7 mRNA", "16%"),
    ("422294 (antisense eG*eA*dG*dT*dT*d[5mC]*dT*dG*d[5mC]*dA*dG*dG*dA*dG*d[5mC]*eG*eG*e[5mC]*e[5mC]*eT) [compound 422294]", "human Factor 7 mRNA", "9%"),
]

Now consider a different substance.
Record 422152 (antisense eA*eT*eG*d[5mC]*dA*dT*dG*dG*dT*dG*dA*dT*dG*d[5mC]*dT*dT*d[5mC]*eT*eG*eA) [compound 422152] has human Factor 7 mRNA percent inhibition of Factor 7 mRNA, relative to untreated control cells equal to 18%

Reference source: patent US20120214862A1
